System: Proteus mirabilis
Test: Minimum inhibitory concentration against Proteus mirabilis delta 89
Assay type: functional
Give MIC for every item shown.
Answers are plain numbers, in mg/L.

[
  {
    "Smiles str": "Cc1ccc(S(=O)(=O)N2N=Cc3ccc(Cl)cc3B2O)cc1",
    "Readout units": "mg/L",
    "MIC": 25
  },
  {
    "Smiles str": "Cc1ccc(S(=O)(=O)N2N=Cc3c(C)cccc3B2O)cc1",
    "Readout units": "mg/L",
    "MIC": 5
  },
  {
    "Smiles str": "Cc1ccc(S(=O)(=O)N2N=Cc3c(ccn3Cc3ccccc3)B2O)cc1",
    "Readout units": "mg/L",
    "MIC": 50
  },
  {
    "Smiles str": "CC(=O)Nc1ccc(S(=O)(=O)N2N=Cc3cc(C)ccc3B2O)c(Cl)c1",
    "Readout units": "mg/L",
    "MIC": 1.25
  },
  {
    "Smiles str": "CC(C)CS(=O)(=O)N1N=Cc2sc(Br)cc2B1O",
    "Readout units": "mg/L",
    "MIC": 6.25
  }
]

Consider the following items and state reported MIC for each.
1. O=S(=O)(c1cc(Cl)c(Cl)cc1Cl)N1N=Cc2cc(Br)ccc2B1O
2. CC(=O)Nc1ccc(S(=O)(=O)N2N=Cc3sc(Br)cc3B2O)c(Cl)c1
3. Cc1ccc(S(=O)(=O)N2N=Cc3cc(Cl)ccc3B2O)cc1
4. Cc1ccc(S(=O)(=O)N2N=Cc3oc(Br)cc3B2O)cc1

Result:
[6.25, 6.25, 3.12, 3.12]

Q: Return the recorded MIC value; entry: Cc1cc(C)c(S(=O)(=O)N2N=Cc3c(F)cccc3B2O)c(C)c1
Result: 10

* * *

System: Proteus mirabilis
Assay: Minimum inhibitory concentration against Proteus mirabilis delta 89
Type: functional
Readout label: MIC (µg/mL)
One number for each entry, in µg/mL.

Below: 8 molecules and their reported MIC.
[
  {
    "Smiles str": "Cc1ccc(S(=O)(=O)N2N=Cc3c(ccc4ccccc34)B2O)cc1",
    "Measured on": "Proteus mirabilis",
    "MIC, µg/mL": 3.12
  },
  {
    "Smiles str": "CCCS(=O)(=O)N1N=Cc2sccc2B1O",
    "Measured on": "Proteus mirabilis",
    "MIC, µg/mL": 25
  },
  {
    "Smiles str": "CCc1cc2c(s1)B(O)N(S(=O)(=O)c1ccc(C)cc1)N=C2",
    "Measured on": "Proteus mirabilis",
    "MIC, µg/mL": 1.25
  },
  {
    "Smiles str": "Cc1ccc(S(=O)(=O)N2N=Cc3sc(C)cc3B2O)c(Cl)c1",
    "Measured on": "Proteus mirabilis",
    "MIC, µg/mL": 1.56
  },
  {
    "Smiles str": "Cc1ccc(S(=O)(=O)N2N=Cc3cc(N)ccc3B2O)cc1",
    "Measured on": "Proteus mirabilis",
    "MIC, µg/mL": 50
  },
  {
    "Smiles str": "O=[N+]([O-])c1ccc(S(=O)(=O)N2N=Cc3cc(Br)ccc3B2O)cc1",
    "Measured on": "Proteus mirabilis",
    "MIC, µg/mL": 3.12
  },
  {
    "Smiles str": "Cc1ccc(S(=O)(=O)N2N=Cc3cc(C)sc3B2O)c(Cl)c1",
    "Measured on": "Proteus mirabilis",
    "MIC, µg/mL": 1.56
  },
  {
    "Smiles str": "Cc1ccc(S(=O)(=O)N2N=Cc3ccccc3B2O)cc1",
    "Measured on": "Proteus mirabilis",
    "MIC, µg/mL": 12.5
  }
]

Could you now consider this next molecule?
Q: Please tell me the measured MIC for O=S(=O)(c1ccccc1)N1N=Cc2ccc(O)cc2B1O ; system: Proteus mirabilis.
Result: 50
